quantity name: melting point

                                   compound             result
0  CCCCCCCC(=O)Nc1ccc([N+](=O)[O-])cc1 [Compound 16, N-(4-nitrophenyl) octanamide]    80.9 to 81.6 °C
1                CCCCCCCC(=O)Nc1ccc(OC)nc1C    67.4 to 68.2 °C
2                    COc1ccc(NC(C)=O)c(C)n1  130.1 to 130.4 °C
3  CCCCCCCC(=O)Nc1ccc2c(C(F)(F)F)cc(=O)oc2c1  136.6 to 137.1 °C
4  CCCCCCCC(=O)Nc1ccc(OC)nc1 [Compound 13, N-(6-methoxypyridin-3-yl) octanamide]    61.2 to 61.7 °C
5       CC(=O)Nc1ccc2c(C(F)(F)F)cc(=O)oc2c1  109.3 to 111.4 °C
